- TARGET_DESC: OATP1B1 (Homo sapiens)
- Sequence (Q9Y6L6 1-691): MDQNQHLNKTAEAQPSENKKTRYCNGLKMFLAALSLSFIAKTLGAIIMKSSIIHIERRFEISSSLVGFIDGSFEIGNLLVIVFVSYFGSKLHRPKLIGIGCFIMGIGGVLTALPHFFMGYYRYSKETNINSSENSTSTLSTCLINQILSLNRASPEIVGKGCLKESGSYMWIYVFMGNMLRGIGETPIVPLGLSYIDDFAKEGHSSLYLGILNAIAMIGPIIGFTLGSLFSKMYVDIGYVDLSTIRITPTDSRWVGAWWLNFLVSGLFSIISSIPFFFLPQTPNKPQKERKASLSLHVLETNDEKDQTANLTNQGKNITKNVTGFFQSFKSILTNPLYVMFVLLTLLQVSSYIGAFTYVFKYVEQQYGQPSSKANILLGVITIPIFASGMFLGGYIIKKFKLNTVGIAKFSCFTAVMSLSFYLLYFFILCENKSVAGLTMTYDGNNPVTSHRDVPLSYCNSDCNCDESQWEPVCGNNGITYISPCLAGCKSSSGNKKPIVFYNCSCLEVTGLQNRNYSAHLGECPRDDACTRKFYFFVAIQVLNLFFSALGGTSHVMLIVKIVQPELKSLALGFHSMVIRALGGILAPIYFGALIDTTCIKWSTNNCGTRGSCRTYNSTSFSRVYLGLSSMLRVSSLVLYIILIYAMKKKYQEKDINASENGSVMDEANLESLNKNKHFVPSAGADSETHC
- EXPERIMENT_DESCRIPTION: Concentration-dependent inhibition of OATP1B1-mediated atorvastatin uptake
Reported Ki values for the following compounds.
Response body: numeric value in µM, unit text excluded.

# count of solved cases: 3
- COMPOUND: "Cc1ccc(C)c(OCCCC(C)(C)C(=O)O)c1 [Gemfibrozil]"
  REPORTED_VALUE: 68.1
- COMPOUND: "COC(=O)N[C@H](C(=O)N[C@@H](Cc1ccccc1)[C@@H](O)CN(Cc1ccc(-c2ccccn2)cc1)NC(=O)[C@@H](NC(=O)OC)C(C)(C)C)C(C)(C)C [Atazanavir]"
  REPORTED_VALUE: 0.91
- COMPOUND: "CC(C)CN(C[C@@H](O)[C@H](Cc1ccccc1)NC(=O)O[C@H]1CCOC1)S(=O)(=O)c1ccc(N)cc1 [Amprenavir]"
  REPORTED_VALUE: 9.52

// switching to the query compound
// query Ki value for entry Cc1cccc(C)c1OCC(=O)N[C@@H](Cc1ccccc1)[C@@H](O)C[C@H](Cc1ccccc1)NC(=O)[C@H](C(C)C)N1CCCNC1=O [Lopinavir]
0.32

Values from paper PMC3264873
